src = paper PMC5983452

experiment: Plasma protein binding (equilibrium dialysis), mouse; conditions: male, CD-1, mouse, pH 7.4
QUANTITY_KIND: fraction unbound at 16 h, 1 µM
Please reply with the number alone, leaving off any unit.

Incoming: Given O=C(NC1CN(Cc2cnn(Cc3ccc(Cl)cc3)c2)C1)c1cn(C2CC2)nn1 , state its recorded fraction unbound at 16 h, 1 µM.
Outgoing: 0.26

---

test system: panel of 240 cancer cell lines; assay: Proliferation in a broad panel of 240 cancer cell lines, 2D culture (Eurofins Panlabs Oncopanel); format: cell-based; conditions: Homo sapiens, A-375, A375, Skin; read-out: IC50
QUANTITY_KIND: IC50

Incoming: Given NC1CCC(S(=O)(=O)N2C3CCC2CC(NC(=O)c2cc(C4CC4)on2)C3)CC1 (stereo not shown) , state its recorded IC50.
Outgoing: > 25 µM
